Sourced from patent US11304929B2

Biological target: PHGDH (Homo sapiens (Human))
Test: 3-Phosphoglycerate Dehydrogenase (PHGDH) Fluorescence Intensity Assay, run at two NAD/3-PG ratios: PHGDH_HIGH_NAD/3-PG (250 μM NAD/500 μM 3-PG) and PHGDH_500_NAD/3-PG (500 μM NAD/500 μM 3-PG)
Type: biochemical
Conditions: 250 μM NAD/500 μM 3-PG; read-out: IC50 (PHGDH_HIGH_NAD/3-PG)
API: label(entry) gives 1.0 if the entry's IC50 is strictly smaller than 10 nM; on equality or larger values it gives 0.0.

[
  {
    "COMPOUND": "Cc1cc2c(cc(C(=O)N[C@H](CO)c3ccc(S(=O)(=O)CC(=O)O)cc3)n2C)c(Cl)c1F",
    "ASSAYED_SYSTEM": "PHGDH (Homo sapiens (Human))",
    "ANSWER_LABEL": 1.0
  },
  {
    "COMPOUND": "COC(C)(C)COC(=O)CS(=O)(=O)c1ccc([C@@H](C)NC(=O)c2cc3c(Cl)cc(C)cc3n2C)cc1",
    "ASSAYED_SYSTEM": "PHGDH (Homo sapiens (Human))",
    "ANSWER_LABEL": 0.0
  },
  {
    "COMPOUND": "Cc1cc(Cl)c2cc(C(=O)N[C@H](C)c3ccc([S+]([O-])CC(=O)OC(C)C)cc3)n(C)c2c1 (stereo partly shown)",
    "ASSAYED_SYSTEM": "PHGDH (Homo sapiens (Human))",
    "ANSWER_LABEL": 0.0
  },
  {
    "COMPOUND": "Cc1cc(Cl)c2cc(C(=O)N[C@H](C)c3ccc(S(=O)(=O)CC(=O)O)cc3)n(C)c2c1C",
    "ASSAYED_SYSTEM": "PHGDH (Homo sapiens (Human))",
    "ANSWER_LABEL": 0.0
  },
  {
    "COMPOUND": "CCCCOC(=O)CS(=O)(=O)c1ccc([C@@H](C)NC(=O)c2cc3c(Cl)cc(C)cc3n2C)cc1",
    "ASSAYED_SYSTEM": "PHGDH (Homo sapiens (Human))",
    "ANSWER_LABEL": 0.0
  },
  {
    "COMPOUND": "Cc1cc2c(cc(C(=O)N[C@H](CO)c3ccc([S@+]([O-])CC(=O)O)cc3)n2C)c(Cl)c1Cl",
    "ASSAYED_SYSTEM": "PHGDH (Homo sapiens (Human))",
    "ANSWER_LABEL": 1.0
  },
  {
    "COMPOUND": "CCOC(=O)CS(=O)(=O)c1ccc([C@@H](C)NC(=O)c2cc3c(Cl)cc(C)cc3n2C)cc1",
    "ASSAYED_SYSTEM": "PHGDH (Homo sapiens (Human))",
    "ANSWER_LABEL": 0.0
  }
]

----------
Molecular target: PHGDH (Homo sapiens (Human), UniProt O43175)
Sequence (O43175 2-533 limits assumed): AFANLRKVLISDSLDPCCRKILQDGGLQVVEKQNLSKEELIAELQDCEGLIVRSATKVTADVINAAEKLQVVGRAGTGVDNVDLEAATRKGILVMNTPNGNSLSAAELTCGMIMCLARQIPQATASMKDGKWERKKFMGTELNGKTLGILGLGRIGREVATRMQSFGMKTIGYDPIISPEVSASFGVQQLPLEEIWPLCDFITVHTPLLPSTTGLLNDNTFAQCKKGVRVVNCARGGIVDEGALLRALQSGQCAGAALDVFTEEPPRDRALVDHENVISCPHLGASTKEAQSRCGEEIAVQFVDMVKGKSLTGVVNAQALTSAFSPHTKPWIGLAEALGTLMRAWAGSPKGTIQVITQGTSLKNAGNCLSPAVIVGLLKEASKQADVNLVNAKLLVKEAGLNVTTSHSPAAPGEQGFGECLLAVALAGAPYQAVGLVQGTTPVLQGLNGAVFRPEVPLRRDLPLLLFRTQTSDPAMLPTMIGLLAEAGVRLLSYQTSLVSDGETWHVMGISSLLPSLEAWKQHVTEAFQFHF
Assay: 3-Phosphoglycerate Dehydrogenase (PHGDH) Fluorescence Intensity Assay, run at two NAD/3-PG ratios: PHGDH_HIGH_NAD/3-PG (250 μM NAD/500 μM 3-PG) and PHGDH_500_NAD/3-PG (500 μM NAD/500 μM 3-PG)
Format: biochemical
Conditions: 250 μM NAD/500 μM 3-PG; read-out: IC50 (PHGDH_HIGH_NAD/3-PG)
PROPERTY_LABEL: IC50

[
  {
    "SMILES_CODE": "COC(=O)CS(=O)(=O)c1ccc([C@@H](C)NC(=O)c2cc(-c3ccccc3)nn2C)cn1",
    "EXPERIMENTAL_VALUE": "3690 nM"
  },
  {
    "SMILES_CODE": "COC(=O)C[S@+]([O-])c1ccc([C@@H](C)NC(=O)c2cc3c(Cl)cc(C)cc3n2C)cc1",
    "EXPERIMENTAL_VALUE": "234 nM"
  },
  {
    "SMILES_CODE": "Cc1cc(Cl)c2cc(C(=O)N[C@H](C)c3ccc(S(=O)(=O)CC(=O)O)cc3)n(C)c2n1",
    "EXPERIMENTAL_VALUE": "41 nM"
  },
  {
    "SMILES_CODE": "COC(=O)CS(=O)(=O)c1ccc([C@@H](C)NC(=O)c2cc3c(Cl)cc(C)cc3n2C)cc1",
    "EXPERIMENTAL_VALUE": "412 nM"
  }
]
